Molecular target: DLL4 extracellular domain (R&D systems, catalog #1506-D4/CF) (UniProt Q9NR61 27-529, limits assumed)
Sequence (Q9NR61 27-529 limits assumed): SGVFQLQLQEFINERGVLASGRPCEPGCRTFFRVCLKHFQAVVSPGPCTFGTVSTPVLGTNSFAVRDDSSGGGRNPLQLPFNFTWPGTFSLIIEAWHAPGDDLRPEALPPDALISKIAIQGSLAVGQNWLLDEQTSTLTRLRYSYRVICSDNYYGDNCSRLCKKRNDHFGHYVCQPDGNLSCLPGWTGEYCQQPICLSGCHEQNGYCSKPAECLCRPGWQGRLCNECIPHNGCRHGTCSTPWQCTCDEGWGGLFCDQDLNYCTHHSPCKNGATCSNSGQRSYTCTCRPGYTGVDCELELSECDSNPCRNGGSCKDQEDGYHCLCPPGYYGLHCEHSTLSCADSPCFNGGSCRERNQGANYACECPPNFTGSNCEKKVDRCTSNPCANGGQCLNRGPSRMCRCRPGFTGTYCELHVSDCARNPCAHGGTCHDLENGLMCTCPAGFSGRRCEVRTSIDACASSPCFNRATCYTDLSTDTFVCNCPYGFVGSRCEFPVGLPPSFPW
Test: cell-based or functional assay
metric.name: % inhibition 10 µg/ml, N = 1 (HUVEC proliferation on coated DLL4) (%)
Could you give me the number in %? Just the number is fine.

Item 3A7 (antibody, IgG4, V domains shown, Fully human; also used where no isotype is printed) VH: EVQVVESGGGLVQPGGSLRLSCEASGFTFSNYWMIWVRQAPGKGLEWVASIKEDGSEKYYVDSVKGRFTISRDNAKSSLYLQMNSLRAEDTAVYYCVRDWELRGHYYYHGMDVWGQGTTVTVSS VL: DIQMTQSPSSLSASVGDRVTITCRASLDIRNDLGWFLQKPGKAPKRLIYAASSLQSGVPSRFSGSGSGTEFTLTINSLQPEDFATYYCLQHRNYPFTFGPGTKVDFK has what recorded % inhibition 10 µg/ml, N = 1 (HUVEC proliferation on coated DLL4)? 74

The values you see were collected from patent US20100196385A1.
